TEST_DETAILS: ATG_GATA_CIS: Attagene CIS-FACTORIAL HepG2 Assay for human GATA Binding Protein (AID 2282944)
MEASUREMENT_SETUP: HepG2 GATA cis-element reporter, Attagene multiplex mRNA; actives raise or lower the signal
Activity calls are given as the source filed them. The calls were made as follows: active = hit-call score of the fitted dose curve at least 0.9, where 1 is the maximum; inactive = score below 0.9.
MEASURED_METRIC: outcome

MOLECULE	MEASURED_METRIC	OBSERVED
OC1CCC(C2CCCCC2)CC1 (stereo not drawn)	outcome	inactive
OCCC(F)(F)C(F)(F)C(F)(F)C(F)(F)C(F)(F)C(F)(F)C(F)(F)C(F)(F)F	outcome	inactive
CC(C)(C)c1ccc(O)c(C(C)(C)C)c1	outcome	inactive
